Attribution: PubChem BioAssay (NCI)

# Measurement Description: NCI Yeast Anticancer Drug Screen. Data for the sgs1 mgt1 strain (AID 161);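 note: 0% = growth of cultures given vehicle only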
# Details: S. cerevisiae sgs1 mgt1 strain; at 50.0 µM unless noted
This is part of a sample that, as a whole, favours compounds with a hit. Of some 79,000 tested, about 15% had one in any assay. Active and inactive are the calls of the source. Cut-off read from the data, not from the text of the source: active = growth inhibition above about 70%; inactive = the rest.
Choose the fitting class; nothing outside YES for active, NO for inactive is accepted.

Examples with answers:
COc1ccc(C2c3cc(OC)c(OC)cc3C(Cc3ccc([N+](=O)[O-])cc3)C2c2ccc([N+](=O)[O-])cc2)cc1OC (configuration not stated) = NO
Oc1ccc(C(Cc2ccccc2)NCc2ccccc2)cc1 (configuration not stated) = NO
CCO[C@@H]1OC(=O)[C@H]2C(c3ccccc3Cl)=NO[C@@H]12 = NO
CN(C)c1cccc2c(S(=O)(=O)NCCCNCCN)cccc12 = NO
C[N+](C)(CCCCCCCCCC[N+](C)(C)CC(=O)c1ccccc1)CC(=O)c1ccccc1 = NO
O=C(CNC(=O)C(Cc1ccccc1)N1C(=O)c2ccccc2C1=O)Nc1ccccc1 (configuration not stated) = NO
NC(=S)Nc1ccc(Br)cc1 = NO
Cc1cc2ccccc2c(N=Cc2cc(Br)cc(Br)c2O)c1C#N = YES
CC1OC(Cl)CC(NC(=O)C(F)(F)F)C1OC(=O)C(F)(F)F (configuration not stated) = NO
CC(C)OC(=O)Nc1cccc(Cl)c1F = NO

Record lookup: outcome of this test for `C=CCSC(=S)Nc1nc2ccc([N+](=O)[O-])cc2s1` ? NO

Please let me know the test result on file for O=C(O)C1(F)CC1(c1ccccc1)c1ccccc1 (configuration not stated) . NO

---

# Measurement Description: NCI Yeast Anticancer Drug Screen. Data for the mlh1 rad18 strain (AID 175)
# Details: S. cerevisiae mlh1 rad18 strain growth inhibition, stronger effect = higher value; at 50.0 µM unless noted
About 79,000 compounds went through this panel and 15% of them were active in at least one assay; those are over-represented in the sample as a whole.
Record form. Attribute: growth inhibition. Fill in for each entry.
Answers are plain numbers, in %.

In the examples that follow, each entry is paired with its recorded growth inhibition.
O=S1(=O)OCCOS(=O)(=O)C1(Br)Cc1ccccc1 = -24.2
CCOC(=O)c1c(NS(=O)(=O)c2ccc(C)cc2)sc(C)c1-c1ccccc1 = -3.65
Cc1ccc2c(c1)C1(c3ccc(Cl)cc3Cl)Oc3ccc(C)cc3C(c3ccc(Cl)cc3Cl)(O2)O1 = 16.6
OCCCCCSc1ccccc1 = 7.3
CC1=NN(C(=O)c2ccccc2O)C(=O)/C1=C/c1ccccc1O = -24.6
O=C1CN(c2cccc(C(F)(F)F)c2)C(=O)CN1/N=C/c1cccnc1 = -8.45
CO/C(=N\N=C\c1ccc(Cl)cc1Cl)c1ccncc1 = -54.6
Oc1cc2c(cc1C(Nc1ncccn1)c1ccc3c(c1)OCO3)OCO2 (stereo unspecified) = 15.3
COc1ccc2c(c1)c(COC(C)=O)c(C)c[n+]2[O-] = 52.9
CCOC(=O)C1=C(O)C[C@]2(O)C3CC=C(C)[C@@H]4CCO[C@](OC)(C[C@H]2C1)[C@]34C(=O)OC (stereo partly specified) = 13.1

Fill in: growth inhibition of `COc1cc(OC)c(OC)cc1/C=C/c1nc2ccccc2s1` is ___ 3

---

# Measurement Description: NCI Yeast Anticancer Drug Screen. Data for the sgs1 mgt1 strain (AID 161);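 note: 0% = growth of cultures given vehicle only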
# Details: S. cerevisiae sgs1 mgt1 strain, stronger effect = higher value; at 50.0 µM unless noted
Compounds without any hit were thinned out: in the full panel of roughly 79,000, 15% have a hit.
Measured Endpoint: growth inhibition (%)
One number for each entry, in %.

Would you please look over these solved cases?
CN(C(=O)CCC1OCCO1)c1cc(N)ccc1OCc1ccccc1 = -7.2
Oc1c(CN2CCOCC2)ccc(CN2CCOCC2)c1O = -14.1
COc1ccccc1N=Nc1c(O)n(-c2ccccc2OC)c(=S)n(-c2ccccc2)c1=O = 31.9
O=C1NCC1c1ccccc1 (configuration not stated) = -8.65
O=c1cc(CBr)c2ccc(O)cc2o1 = -23.8

Look at each compound and report its growth inhibition.
1. CCOc1ccc(N=Nc2c(N)nc(N)[nH]c2=O)cc1
2. OC(CN1CCCC1)c1ccccc1 (configuration not stated)
3. O=C(C#Cc1ccccc1)Nc1ccccc1CC(c1c[nH]c2ccccc12)c1c[nH]c2ccccc12

17.4
15.9
1.55

# map each compound to its growth inhibition
1. O=C1NC(=O)C2(CCCC2)N1
2. CC(=O)NC1=NC(=O)/C(=C/c2ccc3c(c2)OCO3)N1C
3. Cc1ccc(S(=O)(=O)/N=S(/Cc2ccccc2)c2c(C)cccc2C)cc1 (configuration not stated)
4. c1ccc(N=c2sc3ccccc3nc2Nc2ccccc2)cc1

[2.8, -3.3, 20.6, -34.4]

---

# Measurement Description: NCI Yeast Anticancer Drug Screen. Data for the sgs1 mgt1 strain (AID 161);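 note: 0% = growth of cultures given vehicle only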
# Details: S. cerevisiae sgs1 mgt1 strain, stronger effect = higher value; at 50.0 µM unless noted
# Description: Growth inhibition of yeast strains with defined genetic alterations is measured as a screen for potential anti-cancer activity. Selected strains with alterations in DNA damage repair or cell cycle control were exposed to compounds and growth inhibition was measured relative to vehicle treated controls. The strain used in this assay is sgs1 mgt1
This is part of a sample that, as a whole, favours compounds with a hit. Of some 79,000 tested, about 15% had one in any assay.
Measured Endpoint: growth inhibition (%)
Give bare numbers, in %.

O=c1c2cccnc2nc2ccc3c[nH][nH]c3c12 = -0.55
Cc1ccc2c(c1)C(C)(C)C(C)(C)C2(C)C = -0.05
CC1OC(n2cnc3c(NC(=O)c4ccccc4)ncnc32)C(O)C2OC12 (configuration not stated) = 8.75

Here are 3 molecules. What values of growth inhibition were reported for them?
1. Nn1c(-c2cccc(Cl)c2)nc2ccccc2c1=O
2. CCCCCCCCCCCCCCCC(=O)c1ccccc1
3. Nc1ccccc1SC1CC(=O)N(c2ccc3c(c2)OCO3)C1=O (configuration not stated)

13
28.4
20.4

For each of the molecules below, note its growth inhibition.
1. COc1ccc(-c2cc(=O)c3c(O)c(OC)c(O)cc3o2)cc1O
2. O=C1CC(c2ccccc2)n2c(nc3ccccc32)N1 (configuration not stated)

[37.5, -18.1]

Hi! Can you tell me growth inhibition for each of these molecules?
1. COC1CCC(OS(C)(=O)=O)C(C)O1 (configuration not stated)
2. CC1CC1C(N)C1CC1C (configuration not stated)
3. O=C(NC12CC3CC(CC(C3)C1)C2)C(=O)c1c[nH]c2ccc(Cl)cc12

[4.6, -1.95, -4.1]

Give its growth inhibition value. Item: Cc1ccc(C(=O)C2C(=O)C(=O)OC2C2OC(=O)C(=O)C2C(=O)c2ccc(C)cc2)cc1 (configuration not stated) 39.5

---

# Measurement Description: NCI Yeast Anticancer Drug Screen. Data for the mec2-1 strain (AID 157)
# Details: S. cerevisiae mec2-1 strain, stronger effect = higher value; at 50.0 µM unless noted
The panel holds about 79,000 compounds, 15% with a hit somewhere; the sample as a whole holds those more often.
Decision: growth inhibition >= -10% yields fulfilled, all other cases yield not fulfilled.

COc1ccc(-n2cnc3c2NC(C)(C)N=C3C(N)=O)c(OC)c1 = not fulfilled
OCCCCC(O)CO (centres undefined) = not fulfilled
CC(=O)c1ccc2c(c1)sc1ccccc12 = not fulfilled

Does the molecule CCC(=O)OC(C)COc1ccccc1 (centres undefined) have recorded growth inhibition that is -10% or more? fulfilled

Form field: growth inhibition at least -10%? Entry: `CCC(CC)/C(=N/Nc1ccc([N+](=O)[O-])cc1[N+](=O)[O-])C1=CCCCC1` not fulfilled

In plain terms: is recorded growth inhibition at least -10% for `CC(C)C(=O)Nc1ccc(S(=O)(=O)Nc2ccc(N)cc2O)cc1` ? fulfilled

Does growth inhibition meet or surpass -10% for `CC1(C)N=C(N)N=C(N)N1CCCOc1ccc(N)cc1` ? fulfilled

In plain terms: is recorded growth inhibition at least -10% for C=C1[C@@H](O)C[C@@H]2C[C@@]3(C)[C@H](C(C)(C)C[C@@H]3O)C12O (some centres undefined) ? not fulfilled

Is it the case that `O=Cc1ccccc1OCCOc1ccccc1C=O` has growth inhibition reaching or exceeding -10%? fulfilled

Given the entry `O/N=C/c1ccc(O)cc1` , answer whether its growth inhibition meets or surpasses -10%. not fulfilled

Given the entry `CCN(CC)C(=O)Oc1cccc(NC(=O)OC)c1` , answer whether its growth inhibition meets or surpasses -10%. fulfilled

Has `O=C1CCCc2ccc3c(c21)CC1(Cc2cc4c(cc2C1)CCCC4)C3` a recorded growth inhibition greater than or equal to -10%? fulfilled

State whether the measured growth inhibition reaches -10%, counting equality as reaching it, for Cc1ccc(N2C(=O)C3CSCN3C2=O)cc1 (centres undefined) fulfilled

Answer whether growth inhibition of CC1=CP(=O)(c2ccccc2)CC1 (centres undefined) (tested in a mixture with another compound) is greater than or equal to -10%. fulfilled
